Assay: Mean residence time in rat
Format: ADME, organism-based
Conditions: in vivo
PROPERTY MEASURED: MRT (h)

INSERT INTO assay_data (smiles_notation, measured_result) VALUES
  ('Cc1ccoc1C(=O)Nc1ccc(N2Cc3c(Cl)cccc3C2=O)c(Cl)c1', 5.03);

* * *

Target: Metabotropic glutamate receptor 1 (Homo sapiens)
Sequence (Q13255 whole entry): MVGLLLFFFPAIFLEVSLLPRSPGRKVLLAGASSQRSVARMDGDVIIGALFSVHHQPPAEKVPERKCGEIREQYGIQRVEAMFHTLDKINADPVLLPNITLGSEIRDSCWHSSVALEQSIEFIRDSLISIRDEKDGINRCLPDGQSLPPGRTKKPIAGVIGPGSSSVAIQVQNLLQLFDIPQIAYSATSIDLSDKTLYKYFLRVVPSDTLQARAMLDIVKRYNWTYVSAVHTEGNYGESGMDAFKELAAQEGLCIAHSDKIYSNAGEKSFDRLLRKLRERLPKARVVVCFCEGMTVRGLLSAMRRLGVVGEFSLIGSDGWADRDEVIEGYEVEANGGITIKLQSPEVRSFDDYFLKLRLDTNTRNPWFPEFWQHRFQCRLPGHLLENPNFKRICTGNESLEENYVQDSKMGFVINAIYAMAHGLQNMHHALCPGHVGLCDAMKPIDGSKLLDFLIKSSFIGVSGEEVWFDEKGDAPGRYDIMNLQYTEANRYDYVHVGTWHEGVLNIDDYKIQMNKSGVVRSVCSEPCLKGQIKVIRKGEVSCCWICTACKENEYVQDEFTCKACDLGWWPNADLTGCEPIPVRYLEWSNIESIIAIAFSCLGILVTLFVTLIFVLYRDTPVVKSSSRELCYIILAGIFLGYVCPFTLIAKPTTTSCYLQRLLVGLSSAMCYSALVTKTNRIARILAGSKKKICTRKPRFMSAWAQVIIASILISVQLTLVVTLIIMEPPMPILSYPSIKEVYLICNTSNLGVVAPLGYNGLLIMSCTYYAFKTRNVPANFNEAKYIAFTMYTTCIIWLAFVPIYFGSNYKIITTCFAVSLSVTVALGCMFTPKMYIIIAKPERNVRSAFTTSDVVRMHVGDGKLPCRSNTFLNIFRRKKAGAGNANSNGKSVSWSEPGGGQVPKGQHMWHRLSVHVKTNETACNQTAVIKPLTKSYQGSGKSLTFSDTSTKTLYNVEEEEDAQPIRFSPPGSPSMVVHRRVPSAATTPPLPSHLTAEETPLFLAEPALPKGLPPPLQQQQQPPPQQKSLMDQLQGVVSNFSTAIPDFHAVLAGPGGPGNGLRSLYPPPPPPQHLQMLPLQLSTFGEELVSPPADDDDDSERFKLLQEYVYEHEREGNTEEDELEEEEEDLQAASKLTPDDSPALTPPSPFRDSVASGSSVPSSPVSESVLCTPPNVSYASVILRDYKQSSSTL
Experiment: Positive allosteric modulatory activity at human mGlu1 receptor expressed in wild type T-Rex293 cells assessed as increase in glutamate-induced calcium mobilization pre-incubated for 2.5 mins before glutamate stimulation for 1 min
Assay type: functional, cell-based
Conditions: read-out: pEC50 (converted)
Measured log10(EC50) values are reported for all entries that follow.
PROPERTY MEASURED: log10(EC50) (log10 of the value in nM)

INSERT INTO results (smiles_notation, property_measured, measured_result) VALUES
  ('Cc1ccoc1C(=O)Nc1ccc(N2Cc3c(C)cccc3C2=O)c(Cl)c1', 'log10(EC50)', 3.04),
  ('Cc1ccoc1C(=O)Nc1ccc(N2C(=O)CCc3ccccc32)c(Cl)c1', 'log10(EC50)', 3.12),
  ('Cc1ccoc1C(=O)Nc1ccc(N2Cc3c(F)cccc3C2=O)c(Cl)c1', 'log10(EC50)', 2.95),
  ('Cc1ccoc1C(=O)Nc1ccc(N2Cc3c(C#N)cccc3C2=O)c(Cl)c1', 'log10(EC50)', 3.33),
  ('Cc1cccnc1C(=O)Nc1ccc(N2Cc3c(Cl)cccc3C2=O)c(Cl)c1', 'log10(EC50)', 3.16),
  ('Cc1ccoc1C(=O)Nc1ccc(N2C(=O)Cc3ccccc3CC2=O)c(Cl)c1', 'log10(EC50)', 3.56),
  ('Cc1ccoc1C(=O)Nc1ccc(N2Cc3cccc(Cl)c3C2=O)c(Cl)c1Cl', 'log10(EC50)', 3.82),
  ('Cc1scnc1C(=O)Nc1ccc(N2Cc3cccc(Cl)c3C2=O)c(Cl)c1', 'log10(EC50)', 3.68),
  ('Cc1ccoc1C(=O)Nc1ccc(N2C(=O)c3ccccc3C2(C)C)c(Cl)c1', 'log10(EC50)', 3.85),
  ('Cc1ccoc1C(=O)Nc1ccc(N2C(=O)Cc3ccccc3C2=O)c(Cl)c1', 'log10(EC50)', 2.35),
  ('Cc1ccoc1C(=O)Nc1ccc(N2CCc3ccccc3C2)c(Cl)c1', 'log10(EC50)', 3.12);
